Numbered stars: 1 amine (or outer) side, 2 acyl side, 3 side chain; on linkers, the order of the positions; unused ones are H or OH. Bridge positions count the residues as written; N and C are the ends. Peptide text beside a SMILES is read from it. * marks the point of attachment. X5 = O=C1CN2CCN3CCN(CC(=O)N4CCN(Cc5cc(C[*:1])cc(C[*:2])c5)CC4)CCN(CC2)CC(=O)[O][Eu]([O]1)[O]C(=O)C3; Hexanoyl = CCCCCC(=O)*
Here's a batch of compounds along with measured IC50 for FAP-expressing human WI-38 fibroblasts (Homo sapiens, UniProt Q12884).

[
  {
    "COMPOUND": "CCCCCC(=O)N[C@H]1CSCc2cc(cc(CN3CCN(C(=O)CN4CCN5CCN6CCN(CC4)CC(=O)[O][Eu]([O]C(=O)C6)[O]C(=O)C5)CC3)c2)CSC[C@@H](C(=O)N[C@@H](CC(=O)O)C(N)=O)NC(=O)[C@H](Cc2ccccc2)NC(=O)[C@H](CCC(N)=O)NC(=O)[C@H]([C@@H](C)O)NC(=O)[C@@H]2CCCN2C(=O)[C@@H]2CCCN2C1=O [Compound 3BP-3661] (Hexanoyl-CPPTQFCD-NH2; linker 1-7 via X5)",
    "IC50": "< 10 nM"
  },
  {
    "COMPOUND": "CCCCCC(=O)N[C@H]1CSCc2cc(CSCCNC(=O)CN3CCN4CCN(CC(=O)O)CCN(CC3)CC(=O)[O][Cu][O]C(=O)C4)cc(c2)CSC[C@@H](C(=O)O)NC(=O)[C@H](Cc2ccccc2)NC(=O)[C@H](CCC(N)=O)NC(=O)[C@H]([C@@H](C)O)NC(=O)[C@@H]2CCCN2C(=O)[C@@H]2CCCN2C1=O",
    "IC50": "< 10 nM"
  },
  {
    "COMPOUND": "CCCCCC(=O)N[C@H]1CSCc2cc(CSCCNC(=O)CN3CCN4CCN5CCN(CC3)CC(=O)[O][Lu]([O]C(=O)C4)[O]C(=O)C5)cc(c2)CSC[C@@H](C(=O)O)NC(=O)[C@H](Cc2ccccc2)NC(=O)[C@H](CCC(N)=O)NC(=O)[C@H]([C@@H](C)O)NC(=O)[C@@H]2CCCN2C(=O)[C@@H]2CCCN2C1=O",
    "IC50": "< 10 nM"
  }
]

---

- PROTOCOL_TEXT: in vivo
- EXPERIMENTAL_CONTEXT: mouse, plasma, iv, 400 nmol/kg, Vz, mouse plasma, intravenous 400 nmol/kg

[
  {
    "SMI": "CCCCCC(=O)N[C@H]1CSCc2cc(CSCCNC(=O)CN3CCN(CC(=O)O)CCN(CC(=O)O)CCN(CC(=O)O)CC3)cc(c2)CSC[C@@H](C(=O)O)NC(=O)[C@H](Cc2ccccc2)NC(=O)[C@H](CCC(N)=O)NC(=O)[C@H]([C@@H](C)O)NC(=O)[C@@H]2CCCN2C(=O)[C@@H]2CCCN2C1=O",
    "Vd": "0.21 L/kg"
  }
]

---

- PROTOCOL_TEXT: in vivo
- EXPERIMENTAL_CONTEXT: mouse, plasma, iv, 400 nmol/kg, Vss, mouse plasma, intravenous 400 nmol/kg
VALUE_KIND: Vd (L/kg)

[
  {
    "SMI": "CCCCCC(=O)N[C@H]1CSCc2cc(CSCCNC(=O)CN3CCN(CC(=O)O)CCN(CC(=O)O)CCN(CC(=O)O)CC3)cc(c2)CSC[C@@H](C(=O)O)NC(=O)[C@H](Cc2ccccc2)NC(=O)[C@H](CCC(N)=O)NC(=O)[C@H]([C@@H](C)O)NC(=O)[C@@H]2CCCN2C(=O)[C@@H]2CCCN2C1=O",
    "UNIT_TAG": "L/kg",
    "ASSAY_VALUE": 0.1
  }
]

Origin of values: patent US12427210B2
